- Test System: Beta-secretase 1 (Homo sapiens, UniProt P56817)
- Sequence (P56817 whole entry): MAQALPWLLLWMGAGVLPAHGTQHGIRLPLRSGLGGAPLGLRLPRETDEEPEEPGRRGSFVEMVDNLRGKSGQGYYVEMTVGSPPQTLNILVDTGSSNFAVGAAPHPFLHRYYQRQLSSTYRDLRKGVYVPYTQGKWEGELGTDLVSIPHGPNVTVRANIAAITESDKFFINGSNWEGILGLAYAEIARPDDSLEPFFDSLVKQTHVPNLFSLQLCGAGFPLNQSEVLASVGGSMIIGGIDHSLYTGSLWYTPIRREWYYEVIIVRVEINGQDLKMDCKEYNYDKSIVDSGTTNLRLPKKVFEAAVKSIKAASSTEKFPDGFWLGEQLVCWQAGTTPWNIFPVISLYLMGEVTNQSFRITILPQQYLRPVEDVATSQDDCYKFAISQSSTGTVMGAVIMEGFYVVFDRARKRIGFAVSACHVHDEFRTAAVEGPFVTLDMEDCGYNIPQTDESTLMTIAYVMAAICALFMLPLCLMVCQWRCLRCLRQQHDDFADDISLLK
- Assay Overview: Inhibition of human BACE1 using HiLyte Fluo488/QXL-520 peptide substrate at 10 uM by fluorescence assay

>  <Chemical String>
COC(=O)[C@H]1OCC(=S)N[C@@H]1c1ccc(OC)c(Br)c1

>  <Output Unit>
%

>  <inhibition>
26

$$$$
>  <Chemical String>
COC(=O)[C@H]1OCC(=S)N[C@@H]1c1ccc(C)cc1

>  <Output Unit>
%

>  <inhibition>
19

$$$$
>  <Chemical String>
COc1ccc([C@H]2NC(=N)CO[C@@H]2C(N)=O)cc1Br

>  <Output Unit>
%

>  <inhibition>
17

$$$$
>  <Chemical String>
Cc1ccc([C@H]2NC(=N)CO[C@@H]2C(N)=O)cc1

>  <Output Unit>
%

>  <inhibition>
14

$$$$
>  <Chemical String>
COc1ccc([C@H]2NC(=N)CO[C@@H]2C(N)=O)cc1OC

>  <Output Unit>
%

>  <inhibition>
10

$$$$
>  <Chemical String>
COc1ccc([C@H]2NC(=N)CO[C@@H]2C(N)=O)cc1

>  <Output Unit>
%

>  <inhibition>
27

$$$$
>  <Chemical String>
COC(=O)[C@H]1OCC(=S)N[C@@H]1c1ccc(OC)c(OC)c1

>  <Output Unit>
%

>  <inhibition>
24

$$$$
>  <Chemical String>
COC(=O)[C@H]1OCC(=S)N[C@@H]1c1ccc(OC)cc1

>  <Output Unit>
%

>  <inhibition>
40

$$$$

The values you see were collected from ChEMBL document CHEMBL4622858.
